# TARGET_UNDER_TEST: Aldo-keto reductase family 1 member A1 (Rattus norvegicus)
# Sequence (P51635 whole entry, looked up): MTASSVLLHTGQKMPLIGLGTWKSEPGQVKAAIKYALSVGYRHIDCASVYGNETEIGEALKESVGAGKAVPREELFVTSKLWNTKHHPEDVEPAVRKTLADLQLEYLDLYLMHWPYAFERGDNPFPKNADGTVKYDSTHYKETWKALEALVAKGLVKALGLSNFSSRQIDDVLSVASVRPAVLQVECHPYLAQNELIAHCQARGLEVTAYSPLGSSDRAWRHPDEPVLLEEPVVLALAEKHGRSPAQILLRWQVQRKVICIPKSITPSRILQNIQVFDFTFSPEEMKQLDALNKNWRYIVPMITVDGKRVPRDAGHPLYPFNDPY
pIC50: −log10 of the molar value.
ENDPOINT: pIC50

                              smiles_record  reported_result
0  O=C1NS(=O)(=O)CC12c1cc(F)ccc1-c1ccc(F)cc12             5.43
1  O=C1CC2(c3cc(F)ccc3-c3ccc(F)cc32)S(=O)(=O)N1             7.57

(a) O=C1NC(=O)C2(N1)c1cc(F)ccc1-c1ccc(F)cc12
(b) O=C1CC2(c3ccccc3-c3ccccc32)S(=O)(=O)N1
Ask | Pick one, a or b : lowest reported pIC50. Use the label to indicate which entry you chose.
Reply | b
(b: 5.76, a: 8.30)
